- System: SF-295
- method: NCI tumour cell line growth inhibition, 48 h
Active and inactive are the calls of the source. Cut-off read from the data, not from the text of the source: active = GI50 up to about 1.1 µM and inactive = higher.
Classes used: y for active, n for inactive

{"compound": "Cc1ccc2c(c1)NC(=O)CCSSCCC(=O)N2", "qualitative.label": "n"}
{"compound": "NC(=O)c1ccc([N+](=O)[O-])cc1", "qualitative.label": "n"}
{"compound": "COc1ccc2c(c1)CC1=C(O2)c2ccc(OC)cc2OC1", "qualitative.label": "n"}
{"compound": "COc1cc(C2c3cc4c(cc3OC(O)C2C)OCO4)cc(OC)c1OC (stereo not given)", "qualitative.label": "y"}
{"compound": "NNC(=O)C(=O)N/N=C(\\CCC(=O)Nc1ccc(Cl)cc1)Cc1nc2ccccc2s1", "qualitative.label": "n"}
{"compound": "CC(=O)OCC1OC(n2c(C)cc(C)c(C#N)c2=S)C(OC(C)=O)C(OC(C)=O)C1OC(C)=O (stereo not given)", "qualitative.label": "n"}
{"compound": "CC(C)(C)c1cc(CCC(=O)Nc2ccc(Cl)cc2Cl)nc(N)n1", "qualitative.label": "n"}
{"compound": "Cc1cc2[nH]c3c(C#N)c(-c4ccccc4)c(CN4CCOCC4)c(=O)n3c2cc1C", "qualitative.label": "n"}
{"compound": "CCN(CC)CCn1c2cc3c(cc2c(=O)c2cccnc21)OCCO3", "qualitative.label": "n"}
{"compound": "Cn1c(=O)c(C2c3ccccc3Oc3c2c(=O)n(C)c2ccccc32)c(O)c2ccccc21 (stereo not given)", "qualitative.label": "n"}
{"compound": "COc1cc(OC)c2nccc(NCCCN(C)C)c2c1[N+](=O)[O-]", "qualitative.label": "n"}
{"compound": "N#CC1([N+](=O)[O-])C=C1c1ccccc1 (stereo not given)", "qualitative.label": "n"}
{"compound": "Cc1ccc(/C=N/Nc2cc(C)c3ccccc3n2)s1", "qualitative.label": "n"}
{"compound": "O=c1c2ccccc2nc2[nH][nH]c(=S)n12", "qualitative.label": "n"}
{"compound": "COC(=O)/C(=N\\N)C(C(=O)C(=O)Nc1cccc([N+](=O)[O-])c1)c1nc2ccc(C(=O)c3ccccc3)cc2nc1O (stereo not given)", "qualitative.label": "n"}
{"compound": "O=C1/C(=C\\c2ccccc2)C(NC2CCCCC2)c2ccccc21 (stereo not given)", "qualitative.label": "n"}
{"compound": "O=[N+]([O-])c1ccc2[nH]c(=S)[nH]c(=S)c2c1", "qualitative.label": "n"}
{"compound": "O=C1Nc2c(Cl)cc(Cl)cc2/C1=N/N=C/c1ccco1", "qualitative.label": "n"}
{"compound": "CC1OC(OC2C(OC(=O)[C@@H]3CC(C)(C)C[C@@H]4C5=CC[C@@H]6[C@@]7(C)C[C@H](O)[C@H](OC8OC(CO)C(O)C(O)C8O)[C@@](C)(CO)C7[C@H](O)C[C@@]6(C)[C@]5(C)C[C@@H](O)[C@H]43)OCC(O)C2O)C(O)C(O)C1O (stereo not given in full)", "qualitative.label": "n"}
{"compound": "CC1C2CC(CC23OCC(CCl)O3)C1(C)C (stereo not given)", "qualitative.label": "n"}
{"compound": "COCOc1c(C(OCOC)c2cnc(Sc3ccccc3)n2C)ccc(OC)c1OC (stereo not given)", "qualitative.label": "n"}
{"compound": "O=C1Nc2ccccc2/C1=N/Nc1ccc([N+](=O)[O-])cc1[N+](=O)[O-]", "qualitative.label": "n"}
{"compound": "Cc1c(C#N)c2nc3ccccc3n2c(=O)/c1=C/Nc1ccc(Cl)cc1", "qualitative.label": "n"}
{"compound": "NC(CCSCC(F)(F)F)C(=O)O (stereo not given)", "qualitative.label": "n"}
{"compound": "CC1=C(C(=O)OCCc2ccc([N+](=O)[O-])cc2)C(c2ccccc2[N+](=O)[O-])C(C(=O)OC(C)C)=C(C)N1 (stereo not given)", "qualitative.label": "n"}
{"compound": "COc1cccc(Nc2nc(N)nc(N)c2N)c1", "qualitative.label": "n"}
{"compound": "CCn1ncc(N=O)c1N", "qualitative.label": "n"}
{"compound": "O/N=C1/Nc2ccccc2C(=S)N2CSCC12 (stereo not given)", "qualitative.label": "n"}
{"compound": "COc1ccc(S(=O)(=O)Nc2ccc(-c3csc(N4C(=O)/C(=C/c5ccccc5)N=C4c4ccccc4)n3)cc2)cc1Cl", "qualitative.label": "n"}
{"compound": "Nc1ccc2c(c1)N(C(=O)CCCC(=O)N1CC(CCl)c3ccc(N)cc31)CC2CCl (stereo not given)", "qualitative.label": "y"}
